Target: T1, human LAG3 expressed on cells (human, UniProt P18627 23-525)
T1 construct: whole, on cells
T1 sequence (looked up): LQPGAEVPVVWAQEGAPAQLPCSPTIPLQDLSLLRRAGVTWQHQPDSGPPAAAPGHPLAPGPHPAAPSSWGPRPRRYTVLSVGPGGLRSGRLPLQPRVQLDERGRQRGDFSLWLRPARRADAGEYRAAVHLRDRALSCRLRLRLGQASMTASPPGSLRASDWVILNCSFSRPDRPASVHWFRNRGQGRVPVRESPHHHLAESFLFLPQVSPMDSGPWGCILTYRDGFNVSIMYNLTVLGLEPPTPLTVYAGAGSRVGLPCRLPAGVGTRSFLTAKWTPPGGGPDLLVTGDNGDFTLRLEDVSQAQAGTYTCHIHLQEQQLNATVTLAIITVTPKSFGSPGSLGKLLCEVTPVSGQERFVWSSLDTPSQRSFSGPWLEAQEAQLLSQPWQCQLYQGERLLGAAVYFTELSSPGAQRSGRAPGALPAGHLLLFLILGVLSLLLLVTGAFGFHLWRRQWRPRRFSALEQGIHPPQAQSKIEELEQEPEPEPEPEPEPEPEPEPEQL
Assay: FACS, 293T-hLAG3 cells
Reported FACS signal at 4.9383 nM by item:
Answer using only a numeral; do not append any unit.

[ask] # get_value(readout='FACS signal at 4.9383 nM', item= sdAb No. 25-B7 (VHH, Humanized sdAb No. 25; not shown: Fc part implied by anti-human IgG Fc detection) VHH: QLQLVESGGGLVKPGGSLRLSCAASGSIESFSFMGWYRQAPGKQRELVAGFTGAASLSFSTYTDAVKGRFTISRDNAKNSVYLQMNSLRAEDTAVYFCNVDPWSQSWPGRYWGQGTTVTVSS )
[reply] 2030
